Hello, the source for this data is the supplement of paper PMC10724198, in case you need it.

Reported protein stability index values follow for various sequences
Tested on: Saccharomyces cerevisiae
Assay: protein stability index of tFT-peptide fusion (C-terminal peptide) (PSI (0-1 scale)); higher = more stable (slower turnover)
Details: genetic background: wild type; temperature: 30 C
Field format: numeric only.

The cases that follow already have their protein stability index on record.
Answer with the recorded protein stability index of PPSNSFHSSIPY only.
0.678

Give protein stability index for GCIPFELLECGF
0.663

Name the recorded protein stability index of the sequence listed here: GVAWGCVSRVFG
0.68

Consider the sequence PAGSRGRHSRER and give its recorded protein stability index.
0.712

Give reported protein stability index value for GGGGERGGVKRG
0.663

New cases:
For the sequence EKCCGAAVMARC , report protein stability index.
0.561

Give the value of protein stability index reported for the following: GRSGWFGSEGVR
0.803

Look up and state reported protein stability index for LLPPQPYTPLHL
0.679

Complete the entry with protein stability index for DMTVICDVAGQT
0.652

====

Tested on: Saccharomyces cerevisiae
Experiment: protein stability index of tFT-peptide fusion (C-terminal peptide) (PSI (0-1 scale)); higher = more stable (slower turnover)
Conditions: genetic background: wild type; temperature: 37 C
Entries get a class label from measured protein stability index. See ranges: zone 1 = under 0.4, zone 2 = from 0.4 up to 0.6, zone 3 = 0.6 and over

Illustrative cases are given below, each with its answer.
// return the class label for HCSRMIIIFLFL
zone 2

Given FCCLVLDLEVSG , name the class its protein stability index places it in.
zone 2

Exercise: read the entry GPPVPLSPPLSP and state which class it falls under.
zone 2

# bin label for VYLVVLYLRYFA
zone 1

For the record PPPPPPLPSSFP , report the class its protein stability index corresponds to.
zone 3

Now, please, on to the next sequence.
Band of PPPYPPPPARSL ?
zone 3

====

System: Saccharomyces cerevisiae
Assay: protein stability index of tFT-peptide fusion (C-terminal peptide) (PSI (0-1 scale)); higher = more stable (slower turnover)
Details: genetic background: wild type; temperature: 37 C
Form field: protein stability index (one value per entry).

Take a look at these entries with their results.
Report measured protein stability index on Saccharomyces cerevisiae; entry: FLPPVHRCFSIF
0.392

Provide protein stability index, tested on Saccharomyces cerevisiae, for LVVGCFLTFCFG .
0.402

Look up and report measured protein stability index (Saccharomyces cerevisiae) for the following sequence: CLLLILCFLCVR
0.401

GET protein stability index where system = Saccharomyces cerevisiae and item = FSFCFCFPLSSL
0.407

Give protein stability index for this entry on Saccharomyces cerevisiae: FFFCFFIFCFSL
0.396

Turning to the following sequence.
Determine reported protein stability index for LYLEAYFCIFHF ; test system: Saccharomyces cerevisiae.
0.401

====

Test system: Saccharomyces cerevisiae
Assay: protein stability index of tFT-peptide fusion (C-terminal peptide) (PSI (0-1 scale)); higher = more stable (slower turnover)
Conditions: genetic background: wild type; temperature: 30 C
Measured protein stability index accompanies every entry in the list below.
Could you respond with only the numeric value?

Please report protein stability index for the following sequence: LSFTSVLGQIPV
0.705

Find the measured protein stability index of AVFQEIPFGIPP and report it.
0.696

Note protein stability index for the sequence shown: CRFLDVSSWILI
0.707

New cases:
Consider the sequence QNWREDNKGKDI . State its measured protein stability index.
0.697

Specify measured protein stability index for FDLTFPPPPLPF .
0.719

Consider the sequence ETKKEETKRWRR . State its measured protein stability index.
0.679

====

Test system: Saccharomyces cerevisiae
Test: protein stability index of tFT-peptide fusion (C-terminal peptide) (PSI (0-1 scale)); higher = more stable (slower turnover)
Details: genetic background: wild type; temperature: 30 C
readout.label: protein stability index
When you answer, write just the number.

Answer with the recorded protein stability index for the sequence listed here: QSGTRRRKRCSD
0.693

Please report the measured protein stability index for GGGGGGGGSSCA
0.685

Further cases:
Answer with the recorded protein stability index for the sequence listed here: PSDGCSPSSTGN
0.696

====

Listed below: protein stability index values for each entry.
Test system: Saccharomyces cerevisiae
Assay: protein stability index of tFT-peptide fusion (C-terminal peptide) (PSI (0-1 scale)); higher = more stable (slower turnover)
Conditions: genetic background: wild type; temperature: 30 C
Write the number on its own, no unit after it.

Dear colleague, please send me the reported protein stability index for ASFLRPQMSLPF when you can.
0.618

Write down protein stability index measured for item LPFRPWLPRSLI
0.68

Please report the measured protein stability index for STLRFGVSLWLP
0.712

// switching to the query sequence
Give the reported protein stability index for this sequence. PPGPPRPPPRTP
0.689

====

Test system: Saccharomyces cerevisiae
Experiment: protein stability index of tFT-peptide fusion in deletion strain of DAS1 (PSI (0-1 scale)); higher = more stable (slower turnover)
readout.label: protein stability index
Note: the reply should be a number with no unit written.

Below, each entry is followed by its recorded protein stability index result.
Using known records, supply protein stability index for KKHKKGLKQKIN
0.596

Dear colleague, please send me the reported protein stability index for RLIQPLPVEFLN when you can.
0.586

Quick one: give measured protein stability index for RLIQPLCVQFLN
0.605

Output measured protein stability index for this item: YRGAVGGWRLVG
0.664

Complete the entry with protein stability index for LVVKLSCVACIN
0.0586

Next:
Quickly give me recorded protein stability index for VRGAVNGWRLVG
0.694

Indicate the recorded protein stability index value for this sequence: LCILRQKMNHQN
0.655

Let me know recorded protein stability index for FSMRWTFHYWVN , thanks.
0.456

====

Test system: Saccharomyces cerevisiae
Test: protein stability index of tFT-peptide fusion (C-terminal peptide) (PSI (0-1 scale)); higher = more stable (slower turnover)
Conditions: genetic background: wild type; temperature: 30 C
readout.label: protein stability index
When you answer, write just the number.

Below, each entry is followed by its recorded protein stability index result.
Could you please provide reported protein stability index for GDSPLQAPPSLL ? Thanks!
0.708

Input LFRFSRLFLFVL , output reported protein stability index.
0.207

Please list protein stability index recorded for the sequence WLWLGFNRVFFY
0.511

Query protein stability index for QLGVVDVIIGAS
0.679

Read the entry FCVCLAVTCCGG and write its reported protein stability index.
0.354

Give a short answer stating reported protein stability index for SFTRYIFFLMFF .
0.355

New cases:
Look up and state reported protein stability index for PCHPGASLRRRL
0.861

Could you please provide reported protein stability index for ILPFSGLAFFLP ? Thanks!
0.677

Read off the recorded protein stability index for LPPPPPSRSRPV
0.712

# return recorded protein stability index for entry STGMYFYTHYLL
0.632

Provide one value: measured protein stability index of GFCFVFVFQCFF
0.394

Report measured protein stability index; entry is TKQLKGEQERDG
0.648

Read off the recorded protein stability index for TSFLRSPPPPRL
0.763

====

Test system: Saccharomyces cerevisiae
Assay: protein stability index of tFT-peptide fusion (C-terminal peptide) (PSI (0-1 scale)); higher = more stable (slower turnover)
Details: genetic background: das1 deletion; temperature: 30 C
Reported protein stability index by item:
Give the figure only, with no unit attached.

# example entries with known answers
Annotate the sequence HLCWLRCACDGP [YLR154C-G C-terminal 12 aa] with its measured protein stability index.
0.716

Name the recorded protein stability index of the sequence listed here: YSINPDEIELDI [SYF1 C-terminal 12 aa]
0.707

Fill in protein stability index for record GYKDRFGNLNVM [ATP7 C-terminal 12 aa]
0.704

New cases:
Specify measured protein stability index for MDLEKDRYYDLS [DAS2 C-terminal 12 aa] .
0.691

Complete the entry with protein stability index for TEMATDASARMV [TPO4 C-terminal 12 aa]
0.687

Provide protein stability index value for the following sequence: QNRFISINKIFW [YDR133C C-terminal 12 aa]
0.703

Retrieve protein stability index measured for ITHLKAILPKYL [CCA1 C-terminal 12 aa] and print it.
0.695

Hello, please tell me recorded protein stability index for this one: LCSIYKALLLGP [ATF1 C-terminal 12 aa]
0.681

Supply protein stability index value. Item: ITERLFNAALDD [YBR232C C-terminal 12 aa]
0.709

Fill in protein stability index for record AQQNYRLWLSSV [ATG41 C-terminal 12 aa]
0.682

Give recorded protein stability index. SRFLKRKSHHDK [SEC1 C-terminal 12 aa]
0.687

Please report the measured protein stability index for LELVLKNKEMEN [RSA3 C-terminal 12 aa]
0.684

====

Test system: Saccharomyces cerevisiae
Experiment: protein stability index of tFT-peptide fusion (C-terminal peptide) (PSI (0-1 scale)); higher = more stable (slower turnover)
Conditions: genetic background: wild type; temperature: 30 C
readout.label: protein stability index
No unit in the answer, please; the number alone is enough.

Look up and report measured protein stability index for this entry: LYHKDADTIFHA [IRC11 C-terminal 12 aa]
0.715

Please look at this sequence and report its protein stability index: FTHFTSSKDRKD [SIT1 C-terminal 12 aa]
0.699

Provide protein stability index value for the following sequence: LIRKMYYKNLKK [SSL2 C-terminal 12 aa]
0.757

Tell us which protein stability index value is on record for IWKPAGNLVGHS [MSI1 C-terminal 12 aa]
0.702

Identify measured protein stability index corresponding to MVTSIRSTPNYI [MED6 C-terminal 12 aa]
0.722

# return recorded protein stability index for entry HFYDRTNDLTNL [YNL144C C-terminal 12 aa]
0.68

***
Output protein stability index of YSLLIHLSKKKS [YNR005C C-terminal 12 aa]
0.612
